- tgt: T1, CMV peptide on HLA-E*01:03 (human)
- T1 peptide: VMAPRTLIL
- assayText: data from [116]; method not given; soluble, other
attributeMeasured: Kd (µM)
Give just the number in µM; leave the unit off.

Look up Kd for this binder: GF4 (TCR) alpha TRAV35*02 CDR3: AGQPLGGSNYKLT beta TRBV9*01 CDR3: ASSANPGDSSNEKLF
37.4
